Cited source for all entries: paper PMC8448163

measurement-description: clinical
setup-conditions: human, in vivo, t1/2, range across cohorts
measurement-kind: half-life

// query Tell me measured half-life for "C#CC[C@@H](C(=O)N[C@H](/C=C/C(=O)OCC)C[C@@H]1CCNC1=O)n1cccc(NC(=O)c2cc(C)on2)c1=O" please.
// result 0.32 to 2.34 h
